target: nucleolin (NCL) (Homo sapiens, UniProt P19338 1-710); assay: FCS; 1 mM Mg2+ in folding buffer; PBS pH 7.4; aptamer folded in PBS with 5 mM MgCl2 (1 mM for AS1411 and 36t), 90 C 2 min then cooled; final buffer not detailed; overnight at room temperature; 100 pM aptamer (1 nM for serum proteins); conditions: protein: commercial; label: 5'-atto633
Sequence (P19338 whole entry): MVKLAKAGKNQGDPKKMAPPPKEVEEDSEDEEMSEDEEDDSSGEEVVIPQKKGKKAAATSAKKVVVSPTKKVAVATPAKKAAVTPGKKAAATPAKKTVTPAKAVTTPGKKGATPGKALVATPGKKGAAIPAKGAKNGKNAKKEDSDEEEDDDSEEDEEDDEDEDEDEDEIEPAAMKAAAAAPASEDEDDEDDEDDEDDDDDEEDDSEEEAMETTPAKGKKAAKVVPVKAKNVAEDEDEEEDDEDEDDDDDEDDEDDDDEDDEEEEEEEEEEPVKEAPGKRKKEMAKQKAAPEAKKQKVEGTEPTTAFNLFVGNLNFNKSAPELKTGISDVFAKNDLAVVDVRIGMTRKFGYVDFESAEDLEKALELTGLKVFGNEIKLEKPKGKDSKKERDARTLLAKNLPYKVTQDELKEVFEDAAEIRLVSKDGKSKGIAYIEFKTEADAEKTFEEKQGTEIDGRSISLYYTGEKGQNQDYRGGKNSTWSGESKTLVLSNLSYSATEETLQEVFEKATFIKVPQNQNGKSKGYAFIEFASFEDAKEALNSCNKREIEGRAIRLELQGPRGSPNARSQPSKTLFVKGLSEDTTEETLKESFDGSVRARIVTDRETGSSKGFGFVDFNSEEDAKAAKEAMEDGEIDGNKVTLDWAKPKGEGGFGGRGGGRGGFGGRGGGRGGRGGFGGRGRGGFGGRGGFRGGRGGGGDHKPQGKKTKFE
ASSAY_METRIC: Kd (nM)
Response body: numeric value in nM, unit text excluded.

State its Kd: TTTGGTGGTGGTGGTTGTGGTGGTGGTGG (structured_DNA) [AS1411]
30

Attribution: paper PMC10782416
